Assign inhibition to each entry below.
Target: Protein-arginine deiminase type-4 (Homo sapiens)
Experiment: human PAD4 inhibitors, confirmation, biochemical, fluorescence polarization (AID 488796);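 further: inhibitors block active-site labeling by the probe so polarization falls; 0% = PAD4 with probe and DMSO and 100% = probe without PAD4 enzyme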
Settings: recombinant PAD4, RCA probe fluorescence polarization; at 6.36 µM; stronger effect = higher value
The other results are listed elsewhere or left out.
State the answer as a number, implicitly in %.

Request: Query: inhibition; subject: `CN1c2ccc(C=O)c3c(C=O)ccc(c23)N(C)C1(C)C`
Result: 18.5

Request: Follow-up item: `CNC(=S)NNC(=O)c1oc2nc(-c3ccccc3)cc(-c3ccco3)c2c1N`
Result: 2

Request: Follow-up item: `Cc1nc2ccc(NC(=O)C(F)(F)F)cc2o1`
Result: 4.72

Request: Follow-up item: `Cc1nn(C(=O)c2ccoc2C)c(N)c1-c1ccccc1`
Result: 1.71

Request: Follow-up item: `CN(C)c1ccc(N/C=C/C(=O)C(F)(F)F)cc1`
Result: 1.99

Request: Follow-up item: `Cc1ccn2cc(-c3nonc3C)cc2c1`
Result: 6.98

Request: Follow-up item: `COCCNC(=O)Nc1ccc2nc(-c3ccco3)c(-c3ccco3)nc2c1`
Result: 1.02

Request: Follow-up item: `COc1ccc(C(=O)Nc2nc(-c3ccc(S(=O)(=O)N4CCOCC4)cc3)cs2)cc1`
Result: 18.9

Request: Follow-up item: `CC(C)n1cnc2c(NCc3ccccc3)cc(OCC3CCN(C)CC3)cc21`
Result: -10.7

Request: Follow-up item: CC(C)C(NC(=O)c1ccc(Cl)cc1)C(=O)O (stereo unspecified)
Result: -6.12

Request: Follow-up item: `C=CCN(C(=O)Nc1ccc2oc(C)nc2c1)c1ccccc1`
Result: -3.81

Measured values drawn from PubChem BioAssay for this set.
